The following compounds are listed with their measured TGI values.
# System: HL-60(TB) leukemia
# Assay Explanation: NCI tumour cell line growth inhibition, 48 h

CCCCCN(CCCCC)C(=O)[C@H](CCC(=O)OCc1ccccc1)NC(=O)c1cc2ccccc2[nH]1 = > 100 µM
c1ccc(N2N=C3N(c4ccccc4)C2N3c2ccccc2)cc1 = > 100 µM

Let us examine a further case.
I'd like to know its TGI. The compound in question is COc1cc2c(cc1OC)-c1ncc3cc(OC)c(OC)cc3c1C2
> 50 µM

* * *

# System: M14 melanoma
# Assay Explanation: NCI tumour cell line growth inhibition, 48 h
Quantity Measured: TGI (µM)
Write it as a number; the unit µM goes unstated.

Below: 2 compounds and their reported TGI.
CC(C)(C)C(=O)CC(=O)C(F)(F)C(F)(F)C(F)(F)F.[Ag] = 31.1
CC(C)C[C@H](NC(=O)CCc1cccc2ccccc12)B(O)O = 3.72

# value lookup — system M14 melanoma, readout TGI, item CCN(CC)c1ccc(/C=N/NC(=O)c2ccccc2Nc2ccnc(C(F)(F)F)c2)c(O)c1
1.19

# value lookup — system M14 melanoma, readout TGI, item O=c1c(-c2nc3ccccc3[nH]2)cc2ccccc2n1Cc1cn(Cc2ccccc2Cl)nn1
9.33

# value lookup — system M14 melanoma, readout TGI, item COc1ccc2[nH]c3c(C)c4ncccc4c(C)c3c2c1
3.24

// provenance: PubChem BioAssay (NCI)
